The measurements presented in this section are drawn from patent US20260184714A1.

Assay: In vivo pharmacokinetics (plasma concentration by LC-MS/MS, non-compartmental analysis)
Conditions: plasma; mouse, IV, 2 mg/kG
Description: Compound I-1 was evaluated for its plasma stability and oral bioavailability. Mice were fasted overnight before dosing, with water provided ad libitum throughout the study. […] Blood samples (25-30 μL per sample) were taken via saphenous or submandibular vein at 5, 15, 30 min, and 1, 2, 4, 6, 8, 24 h post dose and drug concentration determined by LC-MS/MS. […]
measurementType: half-life (h)

>>> reportedresult("CC(C)C[C@@H]1C(=O)N2C(CN(CC3CCNCC3)C(=O)[C@@H]2CC(C)C)N1C(=O)c1ccco1 (stereo partly shown) [Compound I-1]")
7.9
